Molecular target: T1, human LRP6 construct E1 (amino acids A20-D325) (human, UniProt O75581 20-325)
T1 construct: range 20-325; In the Fab crystal E1 arose from E1E2 degraded beyond Arg 335; residues Ala20 to Lys324 were traced; also called LRP6 E1; E1 domain
T1 sequence (looked up): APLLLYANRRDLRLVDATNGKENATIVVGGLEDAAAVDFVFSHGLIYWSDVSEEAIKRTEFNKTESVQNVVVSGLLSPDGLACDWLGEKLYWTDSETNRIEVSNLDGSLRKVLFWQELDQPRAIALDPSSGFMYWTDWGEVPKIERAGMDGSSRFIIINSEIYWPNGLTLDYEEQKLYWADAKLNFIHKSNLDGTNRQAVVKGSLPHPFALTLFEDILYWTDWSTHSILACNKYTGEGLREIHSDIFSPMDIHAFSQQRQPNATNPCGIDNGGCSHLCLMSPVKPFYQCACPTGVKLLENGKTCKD
Experiment: X-ray co-crystal structure
Positions of bridges follow the written chain, without caps; N, C: chain ends.

| binder | binding result |
| --- | --- |
| Ac-SNSIKFYA-NH2 (also called linear peptide from Exemplary Family 1; parent Ile peptide) [Ac-SNSIKFYA-am] | binds |
| Ac-CNSIKLC-NH2 (disulfide 1-7 (inferred), also called CX5C class member of Exemplary Family 2) [Ac-CNSIKLC-am (disulfide)] | binds |
| Ac-CNSIKCL-NH2 (disulfide 1-6 (inferred), also called CX4C class member of Exemplary Family 2) [Ac-CNSIKCL-am (disulfide)] | binds |
| Ac-GSLCSNRIKPDTHCSS-NH2 (disulfide 4-14 (inferred), also called Peptide C; CX9C class member of Exemplary Family 2) [Ac-GSLCSNRIKPDTHCSS-am (disulfide)] | binds |
